As shown below, each of these binders has a reported koff value.
Tested System: T1, Histidine-tagged human 4-1BB protein (h4-1BB-His) (human, UniProt Q07011 24-186)
T1 construct: not shown: histidine tag
Assay Name: SPR (Biacore T200), antibody on Protein A chip, h4-1BB-His injected;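 further: dissociation phase followed for 300 s, Kd derived as koff divided by kon from the kinetic fit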
Answer with a number only, understood to be in s⁻¹.

Consider the binder 1C4-H4K1-IgG4 (antibody, V domains shown, humanized) VH: QGQMVQSGAEVKKPGASVKLSCKTSGFTFSSSYINWLRQAPGQSLEWIAWIFAGTGGTYYNQKFTGRAQLTVDTSASTAYMELSSLRSEDTAIYYCARHSPRATLFDFWGQGTTLTVSS VL: EIVLTQSPATLSLSPGERATLSCRASSSVNHMHWYQQKPGQAPRALIYATSNLASGIPARFSGSGSGTSFTLTISSLEPEDFAVYYCQQWSSNPYTFGGGTKLEIK . State its measured koff.
0.000516

Data origin, for the record: patent US20240092922A1
